Numbers sourced from patent US5985541A.

Test system: anti-C33 antibodies
ASSAY METHOD TEXT: Spotscan point substitution tests on the Lys-Phe-Ser-Ser-Arg-Leu-Gly-Ala peptide
Assay type: binding
CONDITIONS: point or double substitution of amino acids
Where no end group is shown, it is not given here.
REPORTED PROPERTY: response compared with the Lys-Phe-Ser-Ser-Arg-Leu-Gly-Ala peptide

Example sequences with recorded response compared with the Lys-Phe-Ser-Ser-Arg-Leu-Gly-Ala peptide:
{"columns": ["INPUT SEQUENCE", "REPORTED"],
 "data": [
  ["KASSYLGA [SEQ ID NO: 36]", "advantageously"],
  ["KFSSYLGA [SEQ ID NO: 34]", "better response"],
  ["KHSSYLGA [SEQ ID NO: 37]", "advantageously"],
  ["KFSSGLGA [SEQ ID NO: 32]", "better response"]
]}

Below: the item to evaluate.
Form field: response compared with the Lys-Phe-Ser-Ser-Arg-Leu-Gly-Ala peptide recorded for KFSSPLGA [SEQ ID NO: 33] with anti-C33 antibodies (enter value)
better response
